assay: Cytotoxicity in CEM cells (CC50); assay type: cell-based; settings: human; CEM cells (Table 1)
quantity-name: CC50 (µM)

INSERT INTO assay_data (test_smiles, comparison_operator, reported_result) VALUES
  ('Nc1ccn(C[C@H]2COP(=O)(O)CO2)c(=O)n1', '>', 1000),
  ('Nc1ccn(C[C@@H](CO)OCP(=O)(O)O)c(=O)n1', '=', 857);

###

Selectivity Index listing for selected molecules.
system: Human cytomegalovirus (HCMV); test: HCMV antiviral assay, HCMV DNA quantified by DNA hybridization in MRC-5 cells; format: cell-based; settings: CC50/EC50, Human CMV in MRC-5 (Table 2)
quantity-name: Selectivity Index

INSERT INTO measurements (molecule, quantity_name, reported_result) VALUES
  ('CCCCCCCCCCCCCCCCCCOCCCOP(=O)(O)CO[C@H](CO)Cn1ccc(N)nc1=O', 'Selectivity Index', '1 × 10^6'),
  ('CCCCCCCCCCCCCCCCCCOCCOP1(=O)COC(Cn2ccc(N)nc2=O)CO1 (centres unmarked)', 'Selectivity Index', '1 × 10^6'),
  ('CCCCCCCCCCCCCCCCOP1(=O)COC(Cn2ccc(N)nc2=O)CO1 (centres unmarked)', 'Selectivity Index', 163),
  ('CCCCCCCCCCCCCCCCCCOCCCOP1(=O)COC(Cn2ccc(N)nc2=O)CO1 (centres unmarked)', 'Selectivity Index', '1 × 10^6'),
  ('CCCCCCCCCCCCCCCCOCCCOP(=O)(O)CO[C@H](CO)Cn1ccc(N)nc1=O', 'Selectivity Index', '5 × 10^6');

Reference source for all entries: patent US10071110B2
